- System: NCI-H460 lung
- PROTOCOL_SUMMARY: NCI tumour cell line growth inhibition, 48 h
ASSAY_METRIC: TGI (µM)

[[record]]
structure_as_smiles = "Cc1cc(C)c2c(n1)S(=O)(=O)N(CCCN1CCN(c3cccc(Cl)c3)CC1)/C(=C(\\O)c1ccc(Br)cc1)C2=O"
quantitative_readout = 33.2

[[record]]
structure_as_smiles = "CSc1ccc2c(c1)c(CCN)c(C)n2Cc1ccccc1Cl"
quantitative_readout = 3.02

[[record]]
structure_as_smiles = "COC(=O)c1cc(-c2ccc(S(C)(=O)=O)cc2)[nH]c1N/N=C/c1c(Cl)cccc1Cl"
quantitative_readout = 10.3

[[record]]
structure_as_smiles = "COc1cnccc1Nc1nc(-c2nn(Cc3c(F)cc(OCCO)cc3F)c3ccccc23)ncc1OC"
quantitative_readout = 10.6

[[record]]
structure_as_smiles = "CC/C=C\\C[C@H]1C/C=C2/C(=O)C(Cl)=C[C@@H]2C/C=C\\CCCC(=O)O1"
quantitative_readout = 1.89


---

- System: PC-3 prostate
- PROTOCOL_SUMMARY: NCI tumour cell line growth inhibition, 48 h
ASSAY_METRIC: TGI

[[record]]
compound = "COc1cnccc1Nc1nc(-c2nn(Cc3c(F)cc(OCCO)cc3F)c3ccccc23)ncc1OC"
result = "> 100 µM"

[[record]]
compound = "COC(=O)c1cc2cc(/C=C3/SC(=S)N(N(C(C)=O)C(C)=O)C3=O)oc2n1Cc1ccccc1"
result = "> 100 µM"

[[record]]
compound = "CC[C@]12C=CCN3CC[C@@]4(c5cc(Br)c(OC)cc5N(C)[C@H]4[C@@](O)(C(=O)NC(Cc4c[nH]c5ccccc45)C(=O)OC)[C@@H]1O)[C@@H]32 (stereo partly drawn)"
result = "> 100 µM"

[[record]]
compound = "CCOCCOCCOCCOCCOCCOCCOCCOCCOCCO (tested in a mixture with another compound)"
result = "6.5 µM"

[[record]]
compound = "COc1cccc(CCNc2c(C#N)c3n(c4ccccc4[n+]3C)c3ncccc23)c1"
result = "31.4 µM"

[[record]]
compound = "CC(NNC(=O)c1ccncc1)c1cccc(C(F)(F)F)c1 (stereo not drawn)"
result = "> 100 µM"

[[record]]
compound = "CSc1ccc(C(=O)/C=C/c2ccc(Cl)cc2Cl)cc1"
result = "> 100 µM"

[[record]]
compound = "CCOC(=O)NN(C(=O)OCC)C(C(=O)c1ccccc1)N(NC(=O)OCC)C(=O)OCC"
result = "> 100 µM"

[[record]]
compound = "CC(=O)NC(C)(C)C1CCC(C)CC1 (stereo not drawn)"
result = "> 100 µM"

[[record]]
compound = "COc1ccc(Nc2nc(N)c(C(=O)c3ccc(Cl)cc3)s2)cc1"
result = "6.61 µM"

[[record]]
compound = "C(=N\\Nc1ccc2ccccc2n1)/c1ccccn1"
result = "73 µM"

[[record]]
compound = "COC(=O)C12Oc3ccc(-c4ccc5c(c4O)C(O)=C4C(=O)CC(C)C(O)C4(C(=O)OC)O5)c(O)c3C(O)=C1C(=O)CC(C)C2O (stereo not drawn)"
result = "1.43 µM"

[[record]]
compound = "COc1ccc(-c2nnc3n(C)c4ccccc4n3c2=O)cc1"
result = "> 100 µM"


---

- Tested on: LXFL 529 NSCLC
- PROTOCOL_SUMMARY: NCI tumour cell line growth inhibition, 48 h
TGI values by entry
ASSAY_METRIC: TGI

[[record]]
molecule = "NC(=O)c1ncn(C2OC(CO)C(O)C2O)c1O (stereo unspecified)"
study_system = "LXFL 529 NSCLC"
assay_metric = "TGI"
result = "> 100 µM"

[[record]]
molecule = "CC(=O)Nc1ccc(/C=c2\\sc3nnc(-c4cccnc4)n3c2=O)cc1"
study_system = "LXFL 529 NSCLC"
assay_metric = "TGI"
result = "30.8 µM"

[[record]]
molecule = "Cc1cc(Br)ccc1N=Nc1c(C)nn(-c2ccccc2)c1-c1ccccc1"
study_system = "LXFL 529 NSCLC"
assay_metric = "TGI"
result = "> 100 µM"

[[record]]
molecule = "COc1ccc(-c2oc3cc(O)c(OC)c(O)c3c(=O)c2O)cc1"
study_system = "LXFL 529 NSCLC"
assay_metric = "TGI"
result = "> 100 µM"

[[record]]
molecule = "Brc1ccc(-c2cc3c(cc2C2SCCS2)OCO3)cc1"
study_system = "LXFL 529 NSCLC"
assay_metric = "TGI"
result = "> 100 µM"

[[record]]
molecule = "COc1ccc(C2=Nc3ccccc3N=C(SC)C2)cc1"
study_system = "LXFL 529 NSCLC"
assay_metric = "TGI"
result = "> 100 µM"

